Data provenance: patent US20180036289A1

System: A-204
Assay: Cell proliferation assay (ATPlite), drug with vs without cobicistat
Type: cell-based
Details: A-204 cell line; 120 hours incubation
Experimental: All cell lines were obtained from the American Type Culture Collection (ATCC) Manassas, Va. (US). Master and working cell banks (MCB and WCB) were prepared by subculturing in ATCC-recommended media and freezing protocols (www.atcc.org). Cell line stocks for the assays were prepared from the WCB. […] IC50s were calculated by non-linear regression using IDBS XLfit 5. The percentage growth after 120 h (%-growth) was calculated as follows: 100%×(luminescencet=120h/luminescenceuntreated,t=120h). […]
For each entry below, report its Fold change in IC50 (IC50 [Drug + Cobicistat]/IC50 [Drug]) value.
Numbers only, in fold.

These recorded examples may help you get a feel for the data.
compound: COc1cccc2c1C(=O)c1c(O)c3c(c(O)c1C2=O)C[C@@](O)(C(=O)CO)C[C@@H]3O[C@H]1C[C@H](N)[C@H](O)[C@H](C)O1 [doxorubicin]
result-number: 2.5
--
compound: CC(=O)O[C@@]12CO[C@@H]1C[C@H](O)[C@@]1(C)C(=O)[C@H](O)C3=C(C)[C@@H](OC(=O)[C@H](O)[C@@H](NC(=O)OC(C)(C)C)c4ccccc4)C[C@@](O)([C@@H](OC(=O)c4ccccc4)[C@H]21)C3(C)C [docetaxel]
result-number: 5.7
--
compound: CC[C@]1(O)C[C@@H]2CN(CCc3c([nH]c4ccccc34)[C@@](C(=O)OC)(c3cc4c(cc3OC)N(C)[C@H]3[C@@](O)(C(=O)OC)[C@H](OC(C)=O)[C@]5(CC)C=CCN6CC[C@]43[C@@H]65)C2)C1 [vinblastine]
result-number: 4.0

Give me Fold change in IC50 (IC50 [Drug + Cobicistat]/IC50 [Drug]) for each of these compounds, listed below.
1. CC[C@]1(O)C[C@H]2CN(CCc3c([nH]c4ccccc34)[C@@](C(=O)OC)(c3cc4c(cc3OC)N(C=O)[C@H]3[C@@](O)(C(=O)OC)[C@H](OC(C)=O)[C@]5(CC)C=CCN6CC[C@]43[C@@H]65)C2)C1 [vincristine]
2. Cc1nc(Nc2ncc(C(=O)Nc3c(C)cccc3Cl)s2)cc(N2CCN(CCO)CC2)n1 [dasatinib]
3. CC(=O)O[C@H]1C(=O)[C@@]2(C)[C@H]([C@H](OC(=O)c3ccccc3)[C@]3(O)C[C@H](OC(=O)[C@H](O)[C@@H](NC(=O)c4ccccc4)c4ccccc4)C(C)=C1C3(C)C)[C@]1(OC(C)=O)CO[C@@H]1C[C@@H]2O [paclitaxel]

4.4
2.2
3.6

* * *

System: A-549
Test: Cell proliferation assay (ATPlite), drug with vs without cobicistat
Type: cell-based
Conditions: A-549 cell line; 120 hours incubation
For each entry below, report its Fold change in IC50 (IC50 [Drug + Cobicistat]/IC50 [Drug]) value.
Numeric answer plus unit only.

These recorded examples may help you get a feel for the data.
smiles-notation: CC(=O)O[C@H]1C(=O)[C@@]2(C)[C@H]([C@H](OC(=O)c3ccccc3)[C@]3(O)C[C@H](OC(=O)[C@H](O)[C@@H](NC(=O)c4ccccc4)c4ccccc4)C(C)=C1C3(C)C)[C@]1(OC(C)=O)CO[C@@H]1C[C@@H]2O
result: 1.0 fold
--
smiles-notation: COc1cccc2c1C(=O)c1c(O)c3c(c(O)c1C2=O)C[C@@](O)(C(=O)CO)C[C@@H]3O[C@H]1C[C@H](N)[C@H](O)[C@H](C)O1
result: 0.8 fold
--
smiles-notation: CC[C@]1(O)C[C@H]2CN(CCc3c([nH]c4ccccc34)[C@@](C(=O)OC)(c3cc4c(cc3OC)N(C=O)[C@H]3[C@@](O)(C(=O)OC)[C@H](OC(C)=O)[C@]5(CC)C=CCN6CC[C@]43[C@@H]65)C2)C1
result: 1.9 fold
--
smiles-notation: CC[C@]1(O)C[C@@H]2CN(CCc3c([nH]c4ccccc34)[C@@](C(=O)OC)(c3cc4c(cc3OC)N(C)[C@H]3[C@@](O)(C(=O)OC)[C@H](OC(C)=O)[C@]5(CC)C=CCN6CC[C@]43[C@@H]65)C2)C1
result: 2.3 fold
--
smiles-notation: Cc1nc(Nc2ncc(C(=O)Nc3c(C)cccc3Cl)s2)cc(N2CCN(CCO)CC2)n1
result: 1.0 fold

Now consider the entry below.
Need Fold change in IC50 (IC50 [Drug + Cobicistat]/IC50 [Drug]), item CC(=O)O[C@@]12CO[C@@H]1C[C@H](O)[C@@]1(C)C(=O)[C@H](O)C3=C(C)[C@@H](OC(=O)[C@H](O)[C@@H](NC(=O)OC(C)(C)C)c4ccccc4)C[C@@](O)([C@@H](OC(=O)c4ccccc4)[C@H]21)C3(C)C
1.1 fold
